# Tested on: Escherichia coli
# test.method.notes: Antimicrobial activity Escherichia coli at 2 mg/mL after 24 hrs by agar diffusion technique
# Type: functional
# experimental.setup: read-out: DIZ
parameter.measured: zone of inhibition at 2000 µg/mL
I'd appreciate it if you included the unit after the number.

Some solved cases for reference:
Cc1ccc(/N=N/c2ccc(N3C(=O)C4C5c6ccccc6C(c6ccccc65)C4C3=O)cc2)cc1 (stereo unspecified)
14 mm
O=C1C2C3c4ccccc4C(c4ccccc43)C2C(=O)N1c1ccccc1S (stereo unspecified)
16 mm
O=C1C2C3c4ccccc4C(c4ccccc43)C2C(=O)N1c1ccccc1O (stereo unspecified)
16 mm
O=C1C2C3c4ccccc4C(c4ccccc43)C2C(=O)N1c1ccccc1SSc1ccccc1N1C(=O)C2C3c4ccccc4C(c4ccccc43)C2C1=O (stereo unspecified)
17 mm
CC1(C)S[C@@H]2[C@H](NC(=O)[C@H](N)c3ccccc3)C(=O)N2[C@H]1C(=O)O
19 mm
O=C1C2C3c4ccccc4C(c4ccccc43)C2C(=O)N1C(CO)(CO)CO (stereo unspecified)
14 mm

Next:
I have this compound here, CC(=O)c1ccc(N2C(=O)C3C4c5ccccc5C(c5ccccc54)C3C2=O)cc1 (stereo unspecified) , and I need its recorded zone of inhibition at 2000 µg/mL. 12 mm
